Test system: Saccharomyces cerevisiae
Test: protein stability index of tFT-peptide fusion (C-terminal peptide) (PSI (0-1 scale)); higher = more stable (slower turnover)
Conditions: genetic background: wild type; temperature: 30 C
Outcome label depends on protein stability index relative to 0.7: at/above gives class 1, below gives class 0.

• PCNVLWYSLFLF = class 0
• LLAFRTVSVGVL = class 0
• PRPPPLPPPLPL = class 0
• RLFSPLRPLSPP = class 0
• LPPPTPPPPLLP = class 1
• FLVCTFCRWVWL = class 0
• ERWSPWIVVFTN = class 0
• RLLHLMCFCSGP = class 0
• PPSPFHPPPPER = class 0
• LVCYHLSLPSVR = class 0
• QKQKKKINIEKR = class 1
• GLLYHIRVRSRG = class 0
• QEKWSKVSKKKE = class 1
• RVSEPRRPPLGR = class 0
• FGFFDIKLPVVA = class 0
• LPSPHPPPPPAH = class 1
• PDKRNHLIKLLN = class 0
• FRRARRLRWFGG = class 0
• RHVFLRIKVLNL = class 0
• AGGGPGLEARSL = class 0
• SARPDLAERHRP = class 0
• VDWVEAYVCVGV = class 0
• SLPPDPPSSYSP = class 0
• PRDQPPDGHASP = class 0
• CGCVSWYYGALD = class 0
• PYFQASLSCLPS = class 1
• SFSCYFPLGFFG = class 1
• FACVLVLFPFFL = class 0
• CLSPAPLPPFFY = class 0
• DAGVDVGVGTHD = class 0
• GGVVCWACRWEL = class 0
• MAWTGIDAEVCV = class 0
• SSLTPRVSFIIF = class 0
• GEYRECVSWAGG = class 1
• LKRGKIVDRGWY = class 0
• VIGWACLCFGAI = class 0
• SGLQPADMVFFR = class 1
• YMSHPHGPLCLS = class 1
• PSCYDPCSPPPH = class 1
• GRVPSPDIGLPA = class 0
• DCRELCQSEVMG = class 0
• CFYSRTIILEHC = class 0
• PVPPRLPLPAPL = class 1
• SCARARFAPHHS = class 1
• VIVRAFRWNLVR = class 0
• FCCLVLDLEVSG = class 0
• SFSLSMFVTYSF = class 0
• RGGAGGRQGCGG = class 1

* * *

Tested on: Saccharomyces cerevisiae
Test: protein stability index of tFT-peptide fusion (C-terminal peptide) (PSI (0-1 scale)); higher = more stable (slower turnover)
Details: genetic background: wild type; temperature: 30 C
Measure: protein stability index

- VQASQFRFSVPL: 0.632
- ASLFFSLCSLSE: 0.694
- GNTGRLERLKRQ: 0.734
- PPHPPPPATPCP: 0.682
- IENVETSLKVVG: 0.651
- FNCCSYTSPASG: 0.649
- YGIGVRMPRSYW: 0.709
- PPPPPSPPPPPH: 0.704
- LPASPGSVPFLF: 0.716
- QPDQSKPSTPEP: 0.674
- KKKQKYRREEKE: 0.724
- VSRGHTEWVGMV: 0.702
- LSVLHATFGRCD: 0.645
- CTRRRLLVPRVK: 0.599
- VRVFLSNALFHH: 0.596
- GERAGGPGRGRE: 0.683
- YQFGFLPAFPAC: 0.7
- VRSSLDGDGLCG: 0.687
- TRIRLQKNVITL: 0.683
- PVGWVEASLSPG: 0.721
- GGGSGKSGNLYS: 0.687
- WAIYPDVESVIP: 0.773
- VITFPAFLPISN: 0.702
- RRPPALDSLRHY: 0.661
- RGSPCPQRAALH: 0.7
- AVSESSRRTQFF: 0.704
- LMIVSVRLLFFL: 0.266
- TRHPGGERIPTY: 0.743
- GDWQGRADGAVI: 0.671
- GGVCRARVAETV: 0.674
- VFCCHSSRFVFA: 0.414
- APYLPACALSSL: 0.706
- GFVLMLLVRFEL: 0.419
- DMTCSMEQHEDN: 0.663
- ELTYVYRTALIA: 0.183
- ISEIRHSGFTRL: 0.741
- GPLDEPRIWSHR: 0.669
- LPPSPPCQSPAL: 0.743
- PKRHLTFLPRGV: 0.662
- TYATPSLVFPLL: 0.695
- GSLHPAPDLRTR: 0.709
- GGTPIGAHVLLR: 0.661
- RPFVSSAGSQFP: 0.808
- DKKHRAPGIKIV: 0.501
- LTRPHPPPVRTP: 0.711
- SLAVDVRVSWEI: 0.704
- TPRTNATAMCTP: 0.72
- LPLPPLLPPPSP: 0.68
- VCRGRGGEGIGW: 0.721
- GSKLTLRLSEHF: 0.686
- SLCPRVCSERVP: 0.722
- VGLTGFSQLGDG: 0.675
- GSPSRKGQSRTG: 0.698
- KNRKTQSNQTKI: 0.719
- GIKRKEKEKKNN: 0.615
- FLHPLTPSPPLA: 0.711
- RGAVEAGGWRIG: 0.682
- GWSSTLTFLGGA: 0.701
- CPPPPPPPRPPP: 0.639
- ARCSDPSAATHT: 0.706
- VWSILSCRTRLL: 0.503
- GLVGPKDRVSGL: 0.701
- WGRRCRFIFRGM: 0.654
- KVSPTAGLTSRI: 0.711
- LRCCGGCGVCAL: 0.686
- LGIEFGVADVGL: 0.786
- TRSLLFANRCIV: 0.396
- RGLGLVGLGGGG: 0.727
- RFCRPVCRFNLG: 0.647
- LSTPPDLNPLIF: 0.654
- PPLQFFLYRSWV: 0.664
- NEGYLIQGVSMG: 0.706
- PRLSSPAATSPP: 0.709
- VSVIPIVISLSL: 0.528
- VAVMPKPLGVVR: 0.552
- GAIVLMSCRNVI: 0.634
- NLRRPLYYNGSV: 0.757
- CLLSRGLTVSYS: 0.626
- CRKPRPLSFPLV: 0.701
- APPLPPLFPPSP: 0.677
- RGFPALLPAPAC: 0.753
- WALLAAGGGGRG: 0.651

* * *

Tested on: Saccharomyces cerevisiae
Experiment: protein stability index of tFT-peptide fusion in wild type (PSI (0-1 scale)); higher = more stable (slower turnover)
Settings: genetic background: wild type
Entries and their protein stability index values follow.
Measure: protein stability index

- AITLPMCPSLLR: 0.647
- CTDCGYKFRTNN: 0.254
- MVTRLDAIYFRI: 0.237
- PDKRNHLIKPLN: 0.607
- CTSCGYAFRTNN: 0.226
- LEILRQKMNHQN: 0.161
- FSMRWTFRYWVR: 0.416
- HVTRLDAIYFRI: 0.343
- RSLRDLLPLYFR: 0.507
- ACWRVGLWRGAS: 0.445
- LVVYLSCVACINM: 0.183
- VRGAVGYWRLVG: 0.152
- PDKRNHLIKELN: 0.355
- KKHKKGQKQKKN: 0.577
- ARWVVGLWRGAS: 0.39
- RLIQPLPVQYLN: 0.0462
- ARWRVGLWRGAA: 0.17
- CHVSLPILLFFR: 0.0491
- AITLPMCPLGLR: 0.644

* * *

Entries and their protein stability index values follow.
Test system: Saccharomyces cerevisiae
Experiment: protein stability index of tFT-peptide fusion (C-terminal peptide) (PSI (0-1 scale)); higher = more stable (slower turnover)
Details: genetic background: das1 deletion; temperature: 37 C
Measure: protein stability index

- LWFGAWWLGAVG: 0.336
- RWPLVIRSLIVF: 0.325
- PPPPPPLPSSFP: 0.709
- WCLLGVPVRVVV: 0.462
- VMIFYVLGRVWD: 0.594
- GFALGSFMLVLR: 0.0844
- RTKIKKKIMKNI: 0.716
- ERWSPWIVVFTN: 0.612
- TCRLIQLTVTLH: 0.458
- DECQLCNRDWRG: 0.726

* * *

Test system: Saccharomyces cerevisiae
Experiment: protein stability index of tFT-peptide fusion in deletion strain of DOA10 (PSI (0-1 scale)); higher = more stable (slower turnover)
Measure: protein stability index

* RVTRLCAIYFRI | 0.339
* GLYMCSVGCWPR | 0.67
* RSCRVLLPLYFR | 0.66
* RSLRVGLPLYFR | 0.665
* PVTRLDAIYFRI | 0.693
* AITLPMCPSLLR | 0.68
* CLVSLPIFLFFR | 0.591
* AITLFMCPLLLR | 0.644
* SLYMCSVGCWFR | 0.644
* AITLPMCPLLWR | 0.634
* RVYRLDAIYFRI | 0.587
* GLYMCSVGCWFRV | 0.402
* RVTRLDAIEFRI | 0.7
* AITLPMCCLLLR | 0.602
* GLYMCSVGCWFRM | 0.374
* AITLPMCPLLLRF | 0.615
* GLYMCSVGCLFR | 0.654
* CLVSLPILLFSR | 0.486
* RSLDVLLPLYFR | 0.685
